Molecular target: UniProt P36888
Sequence (P36888 whole entry): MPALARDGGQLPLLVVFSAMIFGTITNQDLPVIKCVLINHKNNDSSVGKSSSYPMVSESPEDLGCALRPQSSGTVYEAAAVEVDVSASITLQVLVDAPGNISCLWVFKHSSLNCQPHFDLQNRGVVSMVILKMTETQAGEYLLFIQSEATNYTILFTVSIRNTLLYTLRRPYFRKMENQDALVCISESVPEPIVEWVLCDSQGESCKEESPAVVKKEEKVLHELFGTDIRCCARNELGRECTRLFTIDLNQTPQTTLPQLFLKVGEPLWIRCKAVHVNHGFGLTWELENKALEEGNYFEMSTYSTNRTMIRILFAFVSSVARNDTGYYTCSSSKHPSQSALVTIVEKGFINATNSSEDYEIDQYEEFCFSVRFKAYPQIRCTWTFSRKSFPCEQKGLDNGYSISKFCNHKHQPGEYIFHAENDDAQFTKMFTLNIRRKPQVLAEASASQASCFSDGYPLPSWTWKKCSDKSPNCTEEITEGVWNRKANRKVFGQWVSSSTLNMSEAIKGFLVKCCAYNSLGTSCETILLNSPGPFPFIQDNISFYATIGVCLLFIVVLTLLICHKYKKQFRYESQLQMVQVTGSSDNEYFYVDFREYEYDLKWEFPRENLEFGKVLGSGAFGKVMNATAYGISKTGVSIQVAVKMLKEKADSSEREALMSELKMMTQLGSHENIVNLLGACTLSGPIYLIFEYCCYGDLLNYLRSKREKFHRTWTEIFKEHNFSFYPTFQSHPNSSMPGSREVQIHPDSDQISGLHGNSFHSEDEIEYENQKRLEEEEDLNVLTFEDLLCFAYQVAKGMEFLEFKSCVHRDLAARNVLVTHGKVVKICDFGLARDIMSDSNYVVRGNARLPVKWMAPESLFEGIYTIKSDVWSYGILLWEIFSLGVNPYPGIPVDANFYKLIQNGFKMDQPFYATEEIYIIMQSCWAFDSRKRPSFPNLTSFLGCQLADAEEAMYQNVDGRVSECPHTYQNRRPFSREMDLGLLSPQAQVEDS
Literature survey of log10 of IC50 (system: UniProt P36888).
Annotation: log10 of IC50, nM basis.

smiles	value measured
Cn1cc(-c2ccc3c(c2)ncn3-c2ccc(CC(=O)Nc3cc(C(C)(C)C)no3)cc2)cn1	-0.23
CC(C)(C)c1cc(NC(=O)Cc2ccc(-n3cnc4cc(-c5cccnc5)ccc43)cc2)on1	-0.14
CC(C)(C)c1cc(NC(=O)Cc2ccc(-n3cnc4cc(C5CCNCC5)ccc43)cc2)on1	1.34
Nc1ncc(-c2ccncc2)nc1Nc1ccc2[nH]ccc2c1	0.78
CCCNNC(=O)c1ccc(Cn2cc(Nc3ncc(Cl)c(-c4cnc5ccccn45)n3)cn2)cc1	1.48
CC(C)(C)c1cc(NC(=O)Cc2ccc(-n3cnc4cc(-c5cn[nH]c5)ccc43)cc2)on1	-0.48
CN(Cc1ccc2nccn2c1)c1ccc(-c2ccc(-c3ccccc3Cl)cc2)o1	4.20

UniProt P36888 log10 of IC50 of COc1cc(-c2ccnc(Nc3cccc(N(C)C)c3)n2)ccc1O is 1.34
